# assay.procedure: protein stability index of a GFP-peptide fusion (GPS, HEK-293T) (PSI 1-6); higher = more stable;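 note: 24-mer peptide tiles fused after GFP, lentivirally expressed, FACS-sorted into six equal bins by GFP/DsRed ratio, decoded by Illumina sequencing, PSI is the read-weighted mean bin number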
# condition.context: treatment: MLN4924 1 uM, 8 h; c terminus: a fixed tail appended
Recorded protein stability index by entry
Write the number on its own, no unit after it.

LLHLDLKPANILLDAHYHVKISDF [RIPK4]; 2.36
GIVEAMVVCRQLGLGFASNAFQET [LOXL2]; 2.39
TVPDEFTVEERQTGMWWRHLVAGG [SLC25A25]; 3
DRRKKIARMGFNASSMLRKSQLGF [DCAF4]; 2.84
STFRTPAVLFTGIVALYIASGLTG [ATL3]; 3.19
ADLLLLTDLKTLCCEFLEGCIAAE [GAN]; 2.16

Report measured protein stability index; entry is AVYFAEAEEAESHFSSIPDAFWWA [KCNA1]
2.53

Dear colleague, please send me the reported protein stability index for NPGTDAVAQTSLEEFNVLEMEVMR [FATE1] when you can.
4.68

Return the recorded protein stability index value; entry: KCEHCRVLFLDHVMYTIHMGCHGF [IKZF1]
2.49

Using the record for NVEDHINPKLPNISLDVLQPSFPE [POMT2] , state its measured protein stability index.
4.7

Give the measured protein stability index for HYAGQDATDPFVAFHINKGLVKKY [FADS1]
3.14

Provide measured protein stability index value, entry: RTSCSSRPCVPPSCHGYTLPGACN [KRT33B]
2.56

Supply protein stability index value. Item: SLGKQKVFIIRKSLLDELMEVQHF [SOAT2]
2.56

----------
# assay.procedure: protein stability index of a GFP-peptide fusion (GPS, HEK-293T) (PSI 1-6); higher = more stable
# condition.context: treatment: DMSO; c terminus: a fixed tail appended
Outcome label depends on protein stability index relative to 3: at/above gives Y, below gives N.

GAGHFEVVKLLVSHGANVNHTTVT [FEM1B]; N
GHGMTPLKVAAESCKADVVELLLS [FEM1B]; N
ILLNGVSGWIFFYVPSSESFIIYL [P2RY14]; N
SPSFQLKAAALPPFPLGASAQNGL [PLAGL1]; Y
NSIAHYRQVNIRTANCTTANQNCV [KCNA1]; Y

Reported protein stability index reaches at least 3 for MLATRNFSGGKSGGNKKSDGVKES [CAMK2A] ?
Y

Does APSLEAPKPSGLEPGPAAYGLKPL [KCTD13] have a reported protein stability index of at least 3?
Y

----------
Entries annotated with measured protein stability index
# assay.procedure: protein stability index of a GFP-peptide fusion (GPS, HEK-293T) (PSI 1-6); higher = more stable
# condition.context: treatment: DMSO; c terminus: a fixed tail appended
Note: the reply should be a number with no unit written.

Example sequences with recorded protein stability index:
SKIFTTLDPASLAWLTEEEPEPAE [DDIT3]; 5.14
EADVNGLRRVLDELTLARTDLEMQ [KRT16]; 4

Attention now turns to another entry.
Determine from records and report protein stability index for HTGEKPYTCHECGDSFSHSSNRIR [ZNF263]
2.67

----------
Readings of protein stability index for the listed sequences
# assay.procedure: protein stability index of a GFP-peptide fusion (GPS, HEK-293T) (PSI 1-6); higher = more stable
# condition.context: treatment: DMSO; c terminus: a fixed tail appended

Consider the worked cases shown below.
ICPICLEMFTKPVVILPCQHNLCR [TRIM55]; 2.42
MGIYQMYLCFLLAVLLQLYVATEA [SLC22A15]; 2.92
AEEEEEEEEEVDLACTPTDVRDVD [CCND1]; 5.53

Tell us which protein stability index value is on record for DLIDVDLIRGSTFAKAKPEIPWTS [PHTF1]
2.25

Supply reported protein stability index belonging to this sequence: EILLDFVYTETVHVTVENVQELLP [KLHL12]
2.31

Report protein stability index, nothing else, for this sequence: DFHLSIHSDMAAIVKAMASPESGL [DVL3]
2.87

Identify measured protein stability index associated with NILFDFVKKKKEEGVIDSSDKEIV [EIF5]
3.65

Using known records, supply protein stability index for LRQKGNRNTHKDLLRFAQVFSQMI [FEM1B]
2.38

Please give measured protein stability index of the following entry: ICEATQIIDYLEQTFLDERTPRLM [GDAP1]
2.39

Let me know recorded protein stability index for LSKSNKPIHTIILNPHVHLVGDDA [CAMK2D] , thanks.
3.12

State its protein stability index for this sequence: FLSLHRAHLGEEAHKCLECGKCFS [ZNF263]
3.06

Tell us which protein stability index value is on record for RSSSRINIPERASGPEGNLNQIVT [FAM104B]
4.28

Please give the documented protein stability index of MLPTVITDIKDESCCMTEEIFGPV [ALDH8A1]
3.83

----------
# assay.procedure: protein stability index of a GFP-peptide fusion (GPS, HEK-293T) (PSI 1-6); higher = more stable
# condition.context: treatment: MLN4924 1 uM, 8 h; c terminus: a fixed tail appended
assay.endpoint: protein stability index

Example entries begin here.
YILLVGYPPFWDEDQHKLYQQIKA [CAMK2B]; 2.82
LIIFDKQSSQRMRQNLKLLVEETS [CEP70]; 2.04
ANYVIVRAYQYTTLTSVQLLDCFG [SLC35F2]; 3.03
APSPQEALVRLRETEEMLGKKQEY [CHMP4C]; 5.12
GDVMHLSQSPSVSQLSVLSLSGVM [PRAME]; 2.28

For STKAIPEKYGAVREVILKELAEAT [ZBED1] , write its protein stability index.
4.08

----------
Measured protein stability index, listed per entry for reference.
# assay.procedure: protein stability index of a GFP-peptide fusion (GPS, HEK-293T) (PSI 1-6); higher = more stable
# condition.context: treatment: DMSO; c terminus: a fixed tail appended
In your answer, state the number alone without any accompanying words.

Provide measured protein stability index value, entry: MVKEPVEDTDPSTLSFNMSDKYPI [EDARADD]
4.37

Identify measured protein stability index associated with QALGTHRPVNKLAELQCEVAALRE [RASAL3]
3.81

Using the record for DQDEGEWGLDQEQVFSLGDGVSGG [ZBED1] , state its measured protein stability index.
5.57

Respond only with protein stability index recorded for QDCGFEHLVPVIEMWADQLTSLKD [CEP70]
2.76

Complete the entry with protein stability index for KNRPAMNYDKLSRSIRQYYKKGII [SPDEF]
2.46

Indicate the recorded protein stability index value for this sequence: EFGALMSNYSLPPPLPTYHVLLEG [TRIM29]
2.7

# return recorded protein stability index for input KFGRTCLHAAAAGGNVECIKLLQS [ANKRD44]
2.44

----------
# assay.procedure: protein stability index of a GFP-peptide fusion (GPS, HEK-293T) (PSI 1-6); higher = more stable
# condition.context: treatment: MLN4924 1 uM, 8 h; c terminus: a fixed tail appended
The threshold is inclusive: protein stability index of exactly 3 counts as fulfilled; values below receive not fulfilled.

# count of solved cases: 5
SLLVTELGSSRTPETVRMVLSNME [IMPA1]; fulfilled
VLTLPFDVVKTQRQVALGAMEAVR [SLC25A39]; not fulfilled
MQGNQILVFPSSSSSSSSQAPGQP [ZBTB22]; fulfilled
KNHSTVTVEEAKAEKETELSLQKE [TRIM29]; fulfilled
EAQAFRALVQEKIQKRNQRQSGDR [WAS]; fulfilled

Does WQAKREEEEEEEEEAEAGEEAVPE [CHGA] have a reported protein stability index of at least 3?
fulfilled

Entry LKKYLEPRCPRMVLSLKEGAREED [FBXO3] : is its protein stability index no less than 3?
fulfilled

Does the sequence APSLEAPKPSGLEPGPAAYGLKPL [KCTD13] have recorded protein stability index that is 3 or more?
fulfilled

----------
# assay.procedure: protein stability index of a GFP-peptide fusion (GPS, HEK-293T) (PSI 1-6); higher = more stable
# condition.context: treatment: DMSO; c terminus: a fixed tail appended
Consider the following sequences and their measured protein stability index readings.
Lab note: jot down the number only; don't add units.

Use the examples below as a reference point.
SNSSQDSLHKGAKRKGIKSSIGRL [PPFIA4]; 4.17
STKAIPEKYGAVREVILKELAEAT [ZBED1]; 3.88
VYRFVCDLQNLLGFTPEELHAILG [ETS2]; 2.21
PWKKCCFSGDGEYIVAGSARQHAL [RBBP5]; 2.14
IFSLATEWVISTGHDKCVSWMCTR [WDFY1]; 2.94
DLPEVESLPRDRVLGFLIENFKGL [VPS39]; 3.27

Return protein stability index (reported value) for this sequence: PPKRMLGADREFIEARRRALKRFV [SNX8]
3.36

Provide protein stability index value for the following sequence: LWTTSRVLKVLSVCSSNKPAIVEA [CTNNB1]
2.21

Give me measured protein stability index, please, for this sequence: PHKERYFDRVDENNPEYLRERNMA [ADD1]
4.47

Give the reported value of protein stability index for this record: RLTSQDWERVHLIVAGGYDERVLE [ALG2]
3.06

Fill in protein stability index for record NKKGFWSYGPVILVVLVVAVVASS [TOR1AIP2]
1.78

Write down protein stability index measured for item TNHGYRVQVENPERFSSAPCLLGS [TRIM35]
3.4
